Target: dopamine transporter (Macaca fascicularis, UniProt Q9GJT6)
Construct: Each caudate-putamen was homogenized and used separately for dopamine and serotonin transporter assays; from tissue; host or cells: caudate-putamen membranes of adult cynomolgus or rhesus monkey brain
Sequence (Q9GJT6 whole entry): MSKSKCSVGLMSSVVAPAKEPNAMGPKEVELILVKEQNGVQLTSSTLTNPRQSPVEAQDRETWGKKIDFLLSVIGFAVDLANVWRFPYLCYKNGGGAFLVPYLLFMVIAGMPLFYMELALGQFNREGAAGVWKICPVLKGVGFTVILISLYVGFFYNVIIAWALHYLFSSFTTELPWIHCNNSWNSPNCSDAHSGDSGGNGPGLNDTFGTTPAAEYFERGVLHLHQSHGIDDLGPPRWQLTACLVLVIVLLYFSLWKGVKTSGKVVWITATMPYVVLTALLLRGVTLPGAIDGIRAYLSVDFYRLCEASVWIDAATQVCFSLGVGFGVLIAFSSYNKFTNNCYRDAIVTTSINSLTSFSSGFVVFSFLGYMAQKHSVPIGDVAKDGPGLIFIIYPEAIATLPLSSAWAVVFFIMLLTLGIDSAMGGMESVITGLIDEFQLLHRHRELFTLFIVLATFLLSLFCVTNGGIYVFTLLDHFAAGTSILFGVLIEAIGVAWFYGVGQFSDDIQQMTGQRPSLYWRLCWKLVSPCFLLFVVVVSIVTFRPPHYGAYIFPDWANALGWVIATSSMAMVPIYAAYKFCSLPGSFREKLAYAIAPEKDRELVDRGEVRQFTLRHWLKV
Assay: Inhibition of [3H]WIN 35,428 binding to the dopamine transporter in monkey caudate-putamen
Conditions: read-out: IC50, binding potency at the DAT
Reported property: pIC50
By convention, pIC50 is the negative base-10 log of a molar concentration.

Qu. Request the reported pIC50 associated with COC(=O)C(c1ccc2ccccc2c1)C1CCCCO1 (centres unmarked) [Naphthyl mixture]
Ans. 6.52

---

Target: dopamine transporter (Macaca fascicularis, UniProt Q9GJT6)
Construct: Each caudate-putamen was homogenized and used separately for dopamine and serotonin transporter assays; from tissue; host or cells: caudate-putamen membranes of adult cynomolgus or rhesus monkey brain
Assay: Inhibition of [3H]WIN 35,428 binding to the dopamine transporter in monkey caudate-putamen
Details: Table 1; [3H]WIN 35,428; monkey caudate-putamen; mean of 3 or more experiments; read-out: DAT IC50
In this section, each of the compounds is paired with its reported pIC50.
Note on units: pIC50 is unitless, being -log10 of a concentration expressed in mol/L.

COC(=O)C(c1ccc2ccccc2c1)C1CCCCO1 (centres unmarked) [Naphthyl mixture]	6.52

Now for a further compound.
Qu. Which pIC50 is reported for this compound? N#CC(c1ccc(Cl)c(Cl)c1)C1CCCC1 (stereo not drawn) [Compound 10, α-cyclopentyl-3,4-dichlorobenzylcyanide]
Ans. 6.89

---

Target: serotonin transporter (Macaca mulatta)
Construct: Each caudate-putamen was homogenized and used separately for dopamine and serotonin transporter assays; from tissue; host or cells: caudate-putamen membranes of adult cynomolgus or rhesus monkey brain
Experiment: biochemical
Type: binding
Details: Table 2; affinity at the serotonin transporter; read-out: SERT IC50
Form field: pIC50 (one value per entry).
pIC50 is a log-scale quantity: -log10 of the concentration expressed in molar.

Take a look at these entries with their results.
CO[C@@H]1C[C@@H](c2ccc(Cl)c(Cl)c2)c2ccccc21 (relative stereo)	6.48
N#CC(c1ccc(Cl)c(Cl)c1)C1CCCCC1 (stereo not drawn) [Compound 8, α-cyclohexyl-3,4-dichlorobenzylcyanide]	5.10
CO[C@@H]1C[C@H](c2ccc3ccccc3c2)c2ccccc21 (relative stereo) [Compound 0-1833, Cis-3-(2-Naphthyl)-0-methylindanol]	6.37
CO[C@@H]1C[C@@H](c2ccc3ccccc3c2)c2ccccc21 (relative stereo) [Compound 0-1925, Trans-1-Methoxy-3-(2-naphthyl)indans]	6.87

Qu. Could you share which pIC50 value was measured for COC(=O)C(c1ccc(Cl)c(Cl)c1)C1CCCCO1 (stereo not shown) [Compound 0-1730] ?
Ans. 5.66

---

Biological target: serotonin transporter (Macaca mulatta, UniProt Q9MYX0)
Construct: Each caudate-putamen was homogenized and used separately for dopamine and serotonin transporter assays; from tissue; host or cells: caudate-putamen membranes of adult cynomolgus or rhesus monkey brain
Sequence (Q9MYX0 whole entry): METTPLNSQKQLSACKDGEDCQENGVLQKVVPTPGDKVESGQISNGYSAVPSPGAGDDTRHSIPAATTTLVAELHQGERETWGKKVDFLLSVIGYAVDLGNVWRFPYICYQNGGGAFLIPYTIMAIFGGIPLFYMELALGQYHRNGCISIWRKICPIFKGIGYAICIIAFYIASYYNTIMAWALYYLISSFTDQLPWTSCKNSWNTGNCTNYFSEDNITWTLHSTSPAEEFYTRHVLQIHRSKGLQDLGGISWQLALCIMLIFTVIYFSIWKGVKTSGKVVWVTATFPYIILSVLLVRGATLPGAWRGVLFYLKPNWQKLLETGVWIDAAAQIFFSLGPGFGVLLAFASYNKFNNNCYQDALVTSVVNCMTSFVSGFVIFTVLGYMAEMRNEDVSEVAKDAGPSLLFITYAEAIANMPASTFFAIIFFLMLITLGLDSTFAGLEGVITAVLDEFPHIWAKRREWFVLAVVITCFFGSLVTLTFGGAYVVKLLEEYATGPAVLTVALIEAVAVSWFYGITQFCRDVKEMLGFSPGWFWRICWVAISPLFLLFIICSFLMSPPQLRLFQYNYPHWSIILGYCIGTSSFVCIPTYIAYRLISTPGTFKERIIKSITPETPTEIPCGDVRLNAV
Assay: biochemical
Assay type: binding
Conditions: read-out: IC50, binding potency at the SERT
Reported property: IC50

Qu. Dear colleague, I am looking for the recorded IC50 of the following molecule: N#CC(c1ccc(Cl)c(Cl)c1)C1CCCCC1 (stereo not drawn) [Compound 8, α-cyclohexyl-3,4-dichlorobenzylcyanide]
Ans. 8 to 12 µM

---

Molecular target: serotonin transporter (Macaca mulatta)
Construct: Each caudate-putamen was homogenized and used separately for dopamine and serotonin transporter assays; from tissue; host or cells: caudate-putamen membranes of adult cynomolgus or rhesus monkey brain
Test: biochemical
Type: binding
Conditions: Table 2; affinity at the serotonin transporter; read-out: SERT IC50
Protocol: The affinities and transporter selectivities of the drugs were assessed in brain tissue of adult cynomolgus or rhesus monkey (Macaca fasicularis or Macaca Mulatta). Caudate-putamen was the source of the dopamine and serotonin transporters. The dopamine transporter affinity was measured with [3H]WIN 35,428 ([3H]CFT), the serotonin transporter was measured with [3H]citalopram and the norepinephrine transporter was measured with [3H]nisoxetine. […]
Reported property: IC50 (µM)
# unit: µM | format: bare number

COC(=O)C(c1ccc(Cl)c(Cl)c1)C1CCCCO1 (stereo not shown) [Compound 0-1731]	7.79

Shifting focus to the molecule that follows.
Qu. Sample COC(=O)C(c1ccc2ccccc2c1)C1CCCCO1 (stereo not shown) [Naphthyl mixture] — what was its IC50?
Ans. 5
